The values you see were collected from the Human Domainome abundance scans (Beltran et al. 2025).

B1: POU domain, class 3, transcription factor 2, residues 262 to 338; numbered along this chain, P20265 (parent)
chain: EDTPTSDDLEQFAKQFKQRRIKLGFTQADVGLALGTLYGNVFSQTTICRFEALQLSFKNMCKLKPLLNKWLEEADSS

- Variants of: B1
- ASSAY TEXT: abundance fitness (aPCA) (normalised: wild type 0, dead -1); higher = more abundant; growth selection in yeast, the domain comes from the species named
- PROTOCOL CONDITIONS: Homo sapiens
EXPERIMENTAL ENDPOINT: abundance fitness
// no unit, no text: just the number

Input line: GET /values?readout=abundance fitness&item= A52K
Output line: -0.07

Input line: GET /values?readout=abundance fitness&item= E73Q
Output line: 0.159

Input line: GET /values?readout=abundance fitness&item= F16C
Output line: -0.765

Input line: GET /values?readout=abundance fitness&item= K64M
Output line: -0.06

Input line: GET /values?readout=abundance fitness&item= S77W
Output line: -0.105

Input line: GET /values?readout=abundance fitness&item= L71S
Output line: -0.207

Input line: GET /values?readout=abundance fitness&item= P65A
Output line: -0.139

Input line: GET /values?readout=abundance fitness&item= E51A
Output line: -0.855

Input line: GET /values?readout=abundance fitness&item= S56D
Output line: -0.093

Input line: GET /values?readout=abundance fitness&item= S76R
Output line: 0.028

Input line: GET /values?readout=abundance fitness&item= G24M
Output line: -0.821

Input line: GET /values?readout=abundance fitness&item= K14E
Output line: 0.018

Input line: GET /values?readout=abundance fitness&item= S43W
Output line: -0.5

Input line: GET /values?readout=abundance fitness&item= I47H
Output line: -0.65

Input line: GET /values?readout=abundance fitness&item= V30D
Output line: -0.794

Input line: GET /values?readout=abundance fitness&item= P65N
Output line: -0.138

Input line: GET /values?readout=abundance fitness&item= N59D
Output line: 0.105

Input line: GET /values?readout=abundance fitness&item= Q54R
Output line: -0.156

Input line: GET /values?readout=abundance fitness&item= A33I
Output line: -0.138

Input line: GET /values?readout=abundance fitness&item= S56A
Output line: -0.345

Input line: GET /values?readout=abundance fitness&item= A28H
Output line: -0.116

Input line: GET /values?readout=abundance fitness&item= K64W
Output line: -0.199

Input line: GET /values?readout=abundance fitness&item= S76E
Output line: 0.002

Input line: GET /values?readout=abundance fitness&item= K69C
Output line: -0.449

Input line: GET /values?readout=abundance fitness&item= K64Q
Output line: -0.067

Input line: GET /values?readout=abundance fitness&item= L23K
Output line: -0.332

Input line: GET /values?readout=abundance fitness&item= A33M
Output line: -0.077

Input line: GET /values?readout=abundance fitness&item= K17C
Output line: -0.442

Input line: GET /values?readout=abundance fitness&item= E73G
Output line: -0.036

Input line: GET /values?readout=abundance fitness&item= F50M
Output line: -0.485

Input line: GET /values?readout=abundance fitness&item= L71E
Output line: -0.598

Input line: GET /values?readout=abundance fitness&item= R19K
Output line: 0.035

Input line: GET /values?readout=abundance fitness&item= F16Q
Output line: -0.647

Input line: GET /values?readout=abundance fitness&item= G35D
Output line: -0.415

Input line: GET /values?readout=abundance fitness&item= L63C
Output line: -0.399

Input line: GET /values?readout=abundance fitness&item= W70M
Output line: -0.669

Input line: GET /values?readout=abundance fitness&item= P65V
Output line: -0.082

Input line: GET /values?readout=abundance fitness&item= I47E
Output line: -0.772

Input line: GET /values?readout=abundance fitness&item= F50V
Output line: -0.682

Input line: GET /values?readout=abundance fitness&item= G35L
Output line: -0.453

Input line: GET /values?readout=abundance fitness&item= L34E
Output line: -1.01

Input line: GET /values?readout=abundance fitness&item= D29W
Output line: -0.588

Input line: GET /values?readout=abundance fitness&item= C61Y
Output line: -0.252

Input line: GET /values?readout=abundance fitness&item= K58L
Output line: -0.163

Input line: GET /values?readout=abundance fitness&item= Q18L
Output line: -0.13

Input line: GET /values?readout=abundance fitness&item= T26H
Output line: -0.285

Input line: GET /values?readout=abundance fitness&item= L37W
Output line: -0.201

Input line: GET /values?readout=abundance fitness&item= L66A
Output line: -0.137

Input line: GET /values?readout=abundance fitness&item= A13T
Output line: -0.255

Input line: GET /values?readout=abundance fitness&item= R19N
Output line: -0.182

Input line: GET /values?readout=abundance fitness&item= G31E
Output line: -0.224

Input line: GET /values?readout=abundance fitness&item= L37T
Output line: 0.048

Input line: GET /values?readout=abundance fitness&item= N40H
Output line: 0.06

Input line: GET /values?readout=abundance fitness&item= W70P
Output line: -0.853

Input line: GET /values?readout=abundance fitness&item= K14G
Output line: -0.251

Input line: GET /values?readout=abundance fitness&item= T46D
Output line: 0.064

Input line: GET /values?readout=abundance fitness&item= G39H
Output line: -0.19

Input line: GET /values?readout=abundance fitness&item= K62P
Output line: -0.99

Input line: GET /values?readout=abundance fitness&item= V30C
Output line: -0.176

Input line: GET /values?readout=abundance fitness&item= N40K
Output line: -0.016

Input line: GET /values?readout=abundance fitness&item= V30H
Output line: -0.529

Input line: GET /values?readout=abundance fitness&item= K17W
Output line: -0.832

Input line: GET /values?readout=abundance fitness&item= D29L
Output line: -0.63

Input line: GET /values?readout=abundance fitness&item= A28L
Output line: -0.196

Input line: GET /values?readout=abundance fitness&item= F25G
Output line: -0.983

Input line: GET /values?readout=abundance fitness&item= L66D
Output line: -0.767

Input line: GET /values?readout=abundance fitness&item= G39L
Output line: -0.754

Input line: GET /values?readout=abundance fitness&item= Q15G
Output line: -0.141

Input line: GET /values?readout=abundance fitness&item= G24K
Output line: -0.295

Input line: GET /values?readout=abundance fitness&item= G24W
Output line: -0.784

Input line: GET /values?readout=abundance fitness&item= L53E
Output line: -0.311

Input line: GET /values?readout=abundance fitness&item= L55V
Output line: -0.573

Input line: GET /values?readout=abundance fitness&item= L67P
Output line: -0.654

Input line: GET /values?readout=abundance fitness&item= T36C
Output line: -0.156

Input line: GET /values?readout=abundance fitness&item= I47V
Output line: -0.121

Input line: GET /values?readout=abundance fitness&item= Q15L
Output line: -0.067

Input line: GET /values?readout=abundance fitness&item= S43I
Output line: -0.768

Input line: GET /values?readout=abundance fitness&item= Q27N
Output line: -0.419

Input line: GET /values?readout=abundance fitness&item= K69W
Output line: -0.288

Input line: GET /values?readout=abundance fitness&item= Q15Y
Output line: 0.092

Input line: GET /values?readout=abundance fitness&item= G31I
Output line: -0.399

Input line: GET /values?readout=abundance fitness&item= T36M
Output line: -0.11

Input line: GET /values?readout=abundance fitness&item= E73S
Output line: -0.071

Input line: GET /values?readout=abundance fitness&item= Q27E
Output line: -0.004

Input line: GET /values?readout=abundance fitness&item= L32W
Output line: -0.015

Input line: GET /values?readout=abundance fitness&item= Q15M
Output line: 0.051

Input line: GET /values?readout=abundance fitness&item= L67W
Output line: -0.798

Input line: GET /values?readout=abundance fitness&item= P65S
Output line: -0.38

Input line: GET /values?readout=abundance fitness&item= W70H
Output line: -0.943

Input line: GET /values?readout=abundance fitness&item= F25A
Output line: -0.183

Input line: GET /values?readout=abundance fitness&item= M60K
Output line: -0.97
